targetEntity: GDP-bound KRAS wild-type protein (Homo sapiens, UniProt P01116)
Sequence (P01116 whole entry): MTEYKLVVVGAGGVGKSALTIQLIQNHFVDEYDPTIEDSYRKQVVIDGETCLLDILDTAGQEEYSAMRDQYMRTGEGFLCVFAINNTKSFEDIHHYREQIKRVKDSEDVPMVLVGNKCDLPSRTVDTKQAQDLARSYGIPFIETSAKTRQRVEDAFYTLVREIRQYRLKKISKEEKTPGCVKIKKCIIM
assay: Binding to KRAS by surface plasmon resonance (SPR), Single Cycle Kinetics
measurementParameters: SPR, Single Cycle Kinetics, GDP-bound KRAS wild-type protein; read-out: KRAS KD
propertyMeasured: pKd
Recall that pKd is obtained by taking minus log10 of the concentration measured in molar.

>  <structureAsSmiles>
CCCN(C)C(=O)[C@@H]1CC(=O)N(C)[C@@H](CCOC)C(=O)N[C@@H]([C@@H](C)CC)C(=O)N(C)CC(=O)N(C)[C@H]2C/C=C\CCN(C2=O)[C@@H](Cc2ccc(C(F)(F)F)cc2)C(=O)N(C)CC(=O)N[C@@H](CCc2cc(F)c(C(F)(F)F)c(F)c2)C(=O)N2C[C@@H](C)C[C@H]2C(=O)NC2(CC(C)(C)C2)C(=O)N(C)[C@@H](C2CCCC2)C(=O)N1C

>  <reportedMeasurement>
9.74

$$$$

Next item in the queue.
Data request, read-out pKd, for `CCO[C@@H]1C[C@H]2C(=O)NC3(CC(C)(C)C3)C(=O)N(C)[C@@H](C3CCCC3)C(=O)N(C)[C@H](C(=O)N(C)CC)CC(=O)N(C)[C@@H](COC)C(=O)N[C@@H]([C@@H](C)CC)C(=O)N(C)CC(=O)N(C)[C@H]3C/C=C\CCN(C3=O)[C@@H](Cc3ccc(C)cc3)C(=O)N(C)CC(=O)N[C@@H](CCc3cc(F)c(C(F)(F)F)c(F)c3)C(=O)N2C1`
10.16
